# Test system: human Hs27 fibroblasts
# assay_details: MTS cytotoxicity assay in Hs27 cells
# Format: cell-based
# applied_conditions: Hs27 cells, 18 h treatment then 2 h MTS, 1 to 1000 μM
property: CC50 (µM)
Answers are plain numbers, in µM.

For record CCCCCCCCS[C@@H]1O[C@H](CO)[C@@H](O)[C@H](O)[C@H]1O [β-OTG, β-octyl thioglucopyranoside, reference compound] the listed CC50 is 380

---

# Test system: Spontaneously immortalized human keratinocytes (HaCaT)
# assay_details: MTS cytotoxicity assay in HaCaT cells
# Type: cell-based
# applied_conditions: HaCaT cells, 18 h treatment then 2 h MTS, 1 to 1000 μM
property: CC50
Respond with the figure and its unit, in that order.

For record CCCCCCCCS[C@@H]1O[C@H](CO)[C@@H](O)[C@H](O)[C@H]1O [β-OTG, β-octyl thioglucopyranoside, reference compound] the listed CC50 is 490 µM

---

Please respond with reported Transition temperature for every item in the list.
# assay_details: Differential scanning calorimetry
# Type: physicochemical
# applied_conditions: DSC, 25 to 200 °C, 2.5 °C/min
Give bare numbers, in °C.

Would you please look over these solved cases?
{"columns": ["molecular_string", "recorded_number"],
 "data": [
  ["CCCCCCCCCCCCn1cc(CO[C@@H]2OC[C@@H](O)[C@H](O)[C@H]2O)nn1", 130.1],
  ["CCCCCCCCCCCCCCn1cc(CO[C@@H]2OC[C@@H](O)[C@H](O)[C@H]2O)nn1", 134.7],
  ["CCCCCCn1cc(CO[C@@H]2OC[C@@H](O)[C@H](O)[C@H]2O)nn1", 120.1],
  ["CCCCCCCCCCn1cc(CO[C@@H]2OC[C@@H](O)[C@H](O)[C@H]2O)nn1", 133.6],
  ["CCCCCCCCCCCCCCCCn1cc(CO[C@@H]2OC[C@@H](O)[C@H](O)[C@H]2O)nn1", 134.9]
]}

Moving on to another compound below.
For record CCCCCCCCn1cc(CO[C@@H]2OC[C@@H](O)[C@H](O)[C@H]2O)nn1 the listed Transition temperature is 126.9

---

# System: Jurkat human T-cell lymphoblastic leukemia cells
# assay_details: MTS cytotoxicity assay in Jurkat cells
# Type: cell-based
# applied_conditions: Jurkat cells, 16 h treatment then 4 h MTS, 1 to 1000 μM
property: CC50 (µM)
One number for each entry, in µM.

For record CCCCCCCCS[C@@H]1O[C@H](CO)[C@@H](O)[C@H](O)[C@H]1O [β-OTG, β-octyl thioglucopyranoside, reference compound] the listed CC50 is 310

---

# assay_details: MTS cytotoxicity assay in Jurkat cells
# Assay type: cell-based, human
# applied_conditions: human, Jurkat cells (acute leukemia T lymphocytes)
Please respond with reported CC50 at 16 h for every item in the list.
One number for each entry, in µM.

{"columns": ["molecular_string", "recorded_number"],
 "data": [
  ["CCCCCCCCn1cc(CO[C@@H]2OC[C@@H](O)[C@H](O)[C@H]2O)nn1", 580],
  ["CCCCCCCCCCCCn1cc(CO[C@@H]2OC[C@@H](O)[C@H](O)[C@H]2O)nn1", 26]
]}

Moving on to another compound below.
For record CCCCCCCCCCn1cc(CO[C@@H]2OC[C@@H](O)[C@H](O)[C@H]2O)nn1 the listed CC50 at 16 h is 77
